Target: T1, Fr + Ki (human, UniProt Q01973)
T1 construct: Frizzled and Kringle domains of the extracellular domain; also called hFc-hROR1-Fr-Ki
T1 sequence (Q01973 165-391 limits assumed): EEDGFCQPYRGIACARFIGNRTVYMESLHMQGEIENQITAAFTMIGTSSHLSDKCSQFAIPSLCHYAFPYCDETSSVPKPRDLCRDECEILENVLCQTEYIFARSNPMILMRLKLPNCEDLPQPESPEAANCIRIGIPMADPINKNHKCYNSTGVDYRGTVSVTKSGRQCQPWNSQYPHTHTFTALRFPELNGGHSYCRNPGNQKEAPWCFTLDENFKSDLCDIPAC
Assay: ELISA on directly coated hFc fusion proteins of hROR1 domains; anti-His-HRP; A405
PARAMETER_MEASURED: binding result

• ERR1-TOP40 chimeric rabbit/human Fab (Fab, V domains shown, Chimeric rabbit/human Fab with His tag, expressed in E. coli (pET11a); kappa light chain) VH: QEQLEESGGRLVTPGTPLTLTCTASGFSLSNYYMSWVRQAPGKGLEYIGIISSSGSTYYASWAKGRFTISKTSSTTVDLKITSPTTEDTATYFCARLYVSDSTANLWGPGTLVTVSS VL: DIVLTQTPSSTSAAVGGTVTIKCQASQSIDSYLAWYQQKPGQPPKLLIYGASNLASGVPSRFSGSRSGTEYILTISGVQREDAATYYCLGGYPNYFHRTAFGGGTKLEIK = no binding
• ERR1-TOP4 chimeric rabbit/human Fab (Fab, V domains shown, Chimeric rabbit/human Fab with His tag, expressed in E. coli (pET11a); lambda light chain) VH: QSVEESGGRLVTPGTPLTLTCTASGIDLSRYAVNWVRQAPGKGLEWIGVISGSGTTYYASWAKGRFTISKTSTTVDLKITSPTTEDTATYFCARGWATDGIFDYDDTFNLWGPGTLVTVSS VL: SYELTQLPSVSVSLGQTARITCGGDSIESKAVHWYQQKPGLAPGLLVYNDDERPSGVPDRFSGSNSGDTATLTISGAQAGDEADYYCQLWDGSAYVFGGGTQLTVTG = no binding
• ERR1-409 chimeric rabbit/human Fab (Fab, V domains shown, Chimeric rabbit/human Fab with His tag, expressed in E. coli (pET11a); lambda light chain) VH: QEQLVESGGRLVTPGGSLTLTCTASGFSLSSYYMGWVRQAPGKGLEWIGTIYGGSGSTWYASWVKGRFTISKTSTAVDLKITSLTTEDTATYFCARSYPGWTTEPYFDIWGPGTLVTVSS VL: QFVLTQPQSVSGSLGQTVSISCNRDSGNIEDYYVHWYQQHPGKAPTTVIYNDDQRPSGVPDRFSGSIDSTSNSASLTITGLLAEDEADYYCLSSDSSAYVFGGGTQLTVTG = no binding
